Every entry's value here was drawn from paper PMC6706930.

assay_overview: Tumour pharmacokinetics: fenretinide and metabolite levels in plasma and tumours of xenografted mice
Type: in vivo
experimental_setup: female, NOD-SCID, mouse, tumour, oral; colon cancer xenograft, Bio-nFeR 150 mg/kg, Suppl. Table 5; read-out: Mean concentration (±sd), Tumor
parameter: concentration at 3 h (ng/mL)

compound: CC1=C(/C=C/C(C)=C/C=C/C(C)=C/C(=O)Nc2ccc(O)cc2)C(C)(C)CCC1 [4-HPR, 4-hydroxy (phenyl)retinamide, reference compound]
parameter: concentration at 3 h
display_unit: ng/mL
measured_value: 1880

----------
assay_overview: Tumour pharmacokinetics: fenretinide and metabolite levels in plasma and tumours of xenografted mice
Assay type: in vivo
experimental_setup: female, NOD-SCID, mouse, tumour, oral; melanoma xenograft, Bio-nFeR 100 mg/kg, Suppl. Table 5; read-out: Mean concentration (±sd), Tumor

compound: CC1=C(/C=C/C(C)=C/C=C/C(C)=C/C(=O)Nc2ccc(O)cc2)C(C)(C)CCC1 [4-HPR, 4-hydroxy (phenyl)retinamide, reference compound]
concentration at 3 h (ng/mL): 2130
